- Measured on: T1, human SEMG2 full-length protein (human, UniProt Q02383 24-582, limits assumed)
- T1 construct: also called SEMG2 protein; semenogelin 2
- T1 sequence: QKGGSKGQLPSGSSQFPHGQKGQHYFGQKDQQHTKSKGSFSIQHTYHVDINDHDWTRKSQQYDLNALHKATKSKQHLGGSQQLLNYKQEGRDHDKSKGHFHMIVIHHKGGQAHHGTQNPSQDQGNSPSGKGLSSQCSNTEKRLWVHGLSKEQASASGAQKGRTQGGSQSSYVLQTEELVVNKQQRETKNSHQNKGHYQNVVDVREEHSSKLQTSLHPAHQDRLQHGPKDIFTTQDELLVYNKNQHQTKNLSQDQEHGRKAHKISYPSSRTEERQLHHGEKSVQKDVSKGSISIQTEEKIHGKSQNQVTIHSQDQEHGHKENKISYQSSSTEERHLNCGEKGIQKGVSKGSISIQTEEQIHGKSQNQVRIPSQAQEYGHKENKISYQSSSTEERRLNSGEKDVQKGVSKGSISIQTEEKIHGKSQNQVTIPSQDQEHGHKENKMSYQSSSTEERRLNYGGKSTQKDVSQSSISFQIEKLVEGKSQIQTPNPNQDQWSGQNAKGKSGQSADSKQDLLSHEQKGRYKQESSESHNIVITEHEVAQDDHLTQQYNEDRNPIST
- Assay procedure: biolayer interferometry (ForteBio Blitz or Gator)
Provide the reported Kd of each item.
Entry format: amount then unit.

# Binder, Kd
records = [
    ("MM14 (antibody, IgG2b, V domains shown) VH: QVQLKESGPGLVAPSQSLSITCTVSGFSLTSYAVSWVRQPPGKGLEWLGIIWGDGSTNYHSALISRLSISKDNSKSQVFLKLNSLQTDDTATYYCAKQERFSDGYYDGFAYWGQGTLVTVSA VL: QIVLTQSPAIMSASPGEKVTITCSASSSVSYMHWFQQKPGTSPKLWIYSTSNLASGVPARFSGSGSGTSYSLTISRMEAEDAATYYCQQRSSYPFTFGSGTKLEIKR", "1.44 nM"),
    ("H88-93 (antibody, V domains shown, Fully human full-length antibody built from a phage Fab) VH: QITLKESGPTLVKPTQTLTLTCNFSGFSLTTSGVGVAWIRQPPGKALEWLALIYWDDDQRYSPSLKSRLSVTKHTSKDQVVLTMTNVGPVDTATYYCAHLSYGPGWGYYMDVWGNGTMVTVSS VL: EIVLTQSPGTLSLSPGERASLSCRASQSVRNNYLAWYQQKPGQAPRLLIFGASNRATGIPDTFSGSGSGTDFTLTISRLEPEDFAVYYCQQYGHSPITFGQGTRLEIK", "4.6 nM"),
]

// next entry
[Q] Give Kd for the following binder: MM08 (antibody, IgG1, V domains shown) VH: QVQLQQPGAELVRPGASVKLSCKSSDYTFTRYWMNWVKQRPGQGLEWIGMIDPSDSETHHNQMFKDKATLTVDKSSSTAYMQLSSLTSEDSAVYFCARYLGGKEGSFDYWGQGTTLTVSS VL: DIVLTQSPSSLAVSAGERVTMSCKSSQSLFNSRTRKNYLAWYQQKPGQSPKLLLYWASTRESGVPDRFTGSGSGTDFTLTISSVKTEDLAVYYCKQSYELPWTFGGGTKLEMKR
[A] 2.34 nM
